Record form. Attribute: pIC50. Fill in for each entry.
- measured-on: NGF (nerve growth factor) (Homo sapiens, UniProt P01138 P01138:122-241)
- Sequence (P01138 122-241, one chain of several): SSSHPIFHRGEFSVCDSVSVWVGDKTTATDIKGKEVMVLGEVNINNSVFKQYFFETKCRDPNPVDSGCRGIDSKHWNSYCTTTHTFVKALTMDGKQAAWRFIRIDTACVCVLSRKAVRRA
- test-name: cell_activity; neurite; TF-1 >0.3
- condition-label: tags: R&D Systems; chain copies: 2
Convention used: pIC50 is expressed as -log10 of the molar concentration.

Requested field: pIC50. Item: GGGUCCUGUGGAAGAGUUUCCGUCUCGUCCACUGUUACCC (ssRNA, as 89(4) plus 2'-OMe U4,A15,A31,A37; no 5' idT) [SEQ ID NO: 89(5)]
10.10

Need pIC50, item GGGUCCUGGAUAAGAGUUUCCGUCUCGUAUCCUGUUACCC (ssRNA, as 82(48) without 5' idT; PS between G8 and G9) [SEQ ID NO: 82(58)]
10.14

Reported pIC50, binder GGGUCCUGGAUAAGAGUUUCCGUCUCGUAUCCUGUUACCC (ssRNA, as 82(48) without 5' idT; PS between U7 and G8) [SEQ ID NO: 82(57)] : ____
10.35

For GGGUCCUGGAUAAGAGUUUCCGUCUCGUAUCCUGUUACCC (ssRNA, as 82(48) without 5' idT; PS between U33 and G34) [SEQ ID NO: 82(62)] , what is its reported pIC50?
10.41
